Entry source: a collection of fitness landscapes (doi:10.1016/j.celrep.2020.107928)

B1: Caulobacter ParB omega fusion; a variant is named by its letters at X, in order, B8GW30 (parent)
chain: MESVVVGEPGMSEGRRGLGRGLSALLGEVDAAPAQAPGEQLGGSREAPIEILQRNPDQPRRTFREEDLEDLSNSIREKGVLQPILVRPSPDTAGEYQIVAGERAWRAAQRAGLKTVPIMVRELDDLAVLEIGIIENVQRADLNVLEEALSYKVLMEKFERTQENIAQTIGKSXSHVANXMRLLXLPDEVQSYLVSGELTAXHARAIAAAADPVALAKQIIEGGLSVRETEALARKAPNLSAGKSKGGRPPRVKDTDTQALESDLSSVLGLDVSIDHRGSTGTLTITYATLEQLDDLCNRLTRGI

Variants of: B1
Assay: one-hybrid fitness for binding parS DNA (scaled: cognate 1, non-cognate 0); higher = stronger binding
Settings: with parS DNA site
In all, about 81,000 sequences were measured (“one-hybrid fitness for binding parS DNA”: median about -0.17, highest 2% from about 0.51 on). The sample as a whole holds a higher share of the highest values than the screen did.
quantity.kind: one-hybrid fitness for binding parS DNA

Example entries begin here.
>>> print(df.to_string())
   variant_designation  reported_value
0                 AKQS           ≤ 0.2
1                 AVTA           ≤ 0.2
2                 RYPN           ≤ 0.2

Provide one-hybrid fitness for binding parS DNA value for the following variant: `RYIN`
0.269

Provide one-hybrid fitness for binding parS DNA value for the following variant: `TEAR`
≤ 0.2

Provide one-hybrid fitness for binding parS DNA value for the following variant: `TWKG`
≤ 0.2
